# log10(IC50) per record follows
study_system: KRAS G12V (Homo sapiens, UniProt P01116, G12V)
Construct: expressed in transfected cells
Sequence (P01116 1-188 isoform P01116-2 G12V): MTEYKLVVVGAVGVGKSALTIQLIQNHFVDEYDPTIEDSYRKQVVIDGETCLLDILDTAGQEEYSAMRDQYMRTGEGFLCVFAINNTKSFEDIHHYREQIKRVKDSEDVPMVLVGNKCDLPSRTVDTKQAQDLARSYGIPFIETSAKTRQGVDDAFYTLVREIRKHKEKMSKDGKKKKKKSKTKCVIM
assay_overview: Cellular KRAS:RAF Disruption Assay (NanoBRET), KRAS G12V
Assay type: cell-based
run_parameters: HEK293 T cells co-expressing RAF1 and KRAS G12V, 24 hours; read-out: RAS::RAF binding via NanoBRET IC50, KRAS G12V
measure: log10(IC50) (log10 of the value in nM)

{"compound": "C#Cc1c(F)ccc2cc(O)cc(-c3ncc4c(N5CCOCC(F)(F)C5)nc(OC[C@]56CCC[C@H]5N(C)CCC6)nc4c3F)c12", "log10(IC50)": 2.12}
{"compound": "C#Cc1c(F)ccc2cc(O)cc(-c3ccc4c(N5C[C@@H]6C[C@H]5C(=O)N6)nc(OC[C@]56CCC[C@H]5N(C)CCC6)nc4c3F)c12", "log10(IC50)": 3.40}
{"compound": "C#Cc1c(F)ccc2cc(O)cc(-c3ccc4c(N5CC6CCC(C5)N6C(=O)C(F)(F)F)nc(OC[C@@]56CCCN5C[C@H](F)C6)nc4c3F)c12", "log10(IC50)": 2.83}
{"compound": "C#Cc1c(F)ccc2cc(O)cc(-c3ncc4c(N5CCOC6CC65)nc(OC[C@]56CCC[C@H]5N(C)CCC6)nc4c3F)c12 (single isomer, unassigned)", "log10(IC50)": 2.10}
{"compound": "C#Cc1c(F)ccc2cc(O)cc(-c3ncc4c(N5C6COCC5C6)nc(OC[C@@]56CCCN5C[C@H](F)C6)nc4c3F)c12", "log10(IC50)": 1.51}
{"compound": "C#Cc1c(F)ccc2cc(O)cc(-c3ncc4c(N5CCOC6CC65)nc(OC[C@@]56CCCN5C[C@H](F)C6)nc4c3F)c12 (some centres unmarked)", "log10(IC50)": 2.07}
{"compound": "C#Cc1c(F)ccc2cc(O)cc(-c3ncc4c(N5CCOCC5)nc(OC[C@@]56CCCN5C[C@H](F)C6)nc4c3F)c12", "log10(IC50)": 2.30}
{"compound": "C#Cc1c(F)ccc2cc(O)cc(-c3ccc4c(N5CCCOCC5)nc(OC[C@@]56CCCN5C[C@H](F)C6)nc4c3F)c12", "log10(IC50)": 1.41}
{"compound": "C#Cc1c(F)ccc2cc(O)cc(-c3ncc4c(N5CCCOCC5)nc(OC[C@]56CCC[C@H]5N(C)CCC6)nc4c3F)c12", "log10(IC50)": 1.28}
{"compound": "C#Cc1c(F)ccc2cc(O)cc(-c3ncc4c(N5CCCC(C)(O)C5)nc(OC[C@]56CCC[C@H]5N(C)CCC6)nc4c3F)c12 (single isomer, unassigned)", "log10(IC50)": 1.30}
{"compound": "C#Cc1c(F)ccc2cc(O)cc(-c3ccc4c(N5CCCOCC5)nc(OC[C@]56CCC[C@H]5N(C)CCC6)nc4c3F)c12", "log10(IC50)": 2.24}
